Tested on: IGROV1 ovarian
Assay: NCI-60 one-dose screen, 48 h
Details: 10 µM unless noted
The panel holds about 83,000 compounds, 20% with a hit somewhere; the sample as a whole holds those more often. Active and inactive are the calls of the source. Rule for the calls: active = growth percent below 10; inactive = the rest.
Pick from active, inactive when you respond.

Here's what some known entries look like.
- CC[C@H](C)[C@H]1O[C@]2(C=C[C@@H]1C)C[C@@H]1C[C@@H](C/C=C(\C)[C@@H](O[C@H]3C[C@H](OC)[C@@H](O[C@H]4C[C@H](OC)[C@@H](NC)[C@H](C)O4)[C@H](C)O3)[C@@H](C)/C=C/C=C3\CO[C@@H]4[C@H](O)C(C)=C[C@@H](C(=O)O1)[C@]34O)O2: active
- COc1ccc2c(c1)c(-c1nc(-c3c[nH]c4ncccc34)cs1)cn2CCCCN1CCOCC1: inactive
- O=[N+]([O-])c1ccc(P(=O)(O)O)cc1: inactive
- CCOC(=O)c1ccccc1C(=O)OCC: inactive
- COC(=O)CCP(CCC(=O)OC)c1ccccc1: inactive

Assay outcome for O=C(Cc1ccccc1)NC(O)C(Cl)(Cl)Cl (stereo not drawn) : what was it? inactive

Same lookup for CC[C@H](C)[C@H](NC(=O)[C@H]1CCCCN1C)C(=O)N(C)[C@H](CCc1nc(C(=O)N[C@@H](Cc2ccccc2)C[C@H](C)C(=O)O)cs1)C(C)C , please. inactive

Same lookup for Cc1cc(N(CCCl)CCCl)ccc1C=Nc1ccc(-c2csc(-c3ccccc3)n2)cc1 , please. inactive

The measured values listed here are drawn from PubChem BioAssay (NCI).
